Where do these numbers come from? They come from ChEMBL document CHEMBL1201862.

# System: SF-539
# assay-details: NCI tumour cell line growth inhibition, 48 h
The source made the active and inactive calls. No stated cut-off is given here; in the data, active = GI50 up to about 1.1 µM and inactive = higher.

- molecule: "O=[N+]([O-])c1cccc(/C=N/NC2=CS(=O)(=O)C=C2)c1"
  GI50: "> 100 µM (inactive)"
- molecule: "Cc1ccc(S(=O)(=O)NC(=O)C#CCOC2CCCCO2)cc1 (stereo unspecified)"
  GI50: "> 100 µM (inactive)"
- molecule: "CCN(CC)CCNC(=O)c1cc2cc(NC(=O)c3cc4cc(N)ccc4[nH]3)ccc2[nH]1"
  GI50: "31.1 µM (inactive)"
- molecule: "CCCCCN1C(=O)C(Cc2ccccc2)N=C(c2ccc(O)cc2)c2cc(Cl)ccc21 (stereo unspecified)"
  GI50: "22.2 µM (inactive)"
- molecule: "Clc1ccccc1-c1nnc2c(-c3ccccc3)nc3ccccc3n12"
  GI50: "> 100 µM (inactive)"
- molecule: "O=c1cnn(C2OC(CO)C(O)C2O)c(=S)[nH]1 (stereo unspecified)"
  GI50: "66.5 µM (inactive)"
